- Tested on: P388 leukemia ip, CD2F1 mice, survival T/C
- Experiment summary: NCI In Vivo Anticancer Drug Screen. Data for tumor model P388 Leukemia (intraperitoneal) in CD2F1 (CDF1) mice
- Particulars: endpoint: median survival time; dose: 100.0 mg/kg/injection; schedule: Q01DX009 (ip); vehicle: saline with Tween-80; higher = longer survival
Inconclusive results and toxic doses are left out.
T/C reference

Examples with their reported T/C follow.
* CC1(C)NNC(=S)NC1=O | 113 % of control
* c1ccc(Cc2ccccc2)cc1 | 110 % of control
* O=C(O)c1c(Cl)c(Cl)c(Cl)c(Cl)c1C(=O)OCC1CCCO1 (configuration not stated) | 106 % of control
* CCOC(=O)c1c[nH]c(=S)n(CCOC)c1=O | 115 % of control

Form entry - test system: P388 leukemia ip, CD2F1 mice, survival T/C; read-out: T/C; compound: "CCN(CC)CCNc1ccc(C)c2sc3c(OC)cccc3c(=O)c12"
100 % of control

Okay, and CCOP(=S)(N1CC1(C)C)N1CC1(C)C (configuration not stated) ?
154 % of control

All figures here come from PubChem BioAssay AID330.
